Below is a list of entries, each paired with its recorded Ki value.
Biological target: Rhesus PDE2A3 (Macaca mulatta, UniProt B3VTJ2)
Construct: made in house; host or cells: AD293 cells, transient transfection; supernatant of sonicated lysate
Sequence (B3VTJ2 1-941): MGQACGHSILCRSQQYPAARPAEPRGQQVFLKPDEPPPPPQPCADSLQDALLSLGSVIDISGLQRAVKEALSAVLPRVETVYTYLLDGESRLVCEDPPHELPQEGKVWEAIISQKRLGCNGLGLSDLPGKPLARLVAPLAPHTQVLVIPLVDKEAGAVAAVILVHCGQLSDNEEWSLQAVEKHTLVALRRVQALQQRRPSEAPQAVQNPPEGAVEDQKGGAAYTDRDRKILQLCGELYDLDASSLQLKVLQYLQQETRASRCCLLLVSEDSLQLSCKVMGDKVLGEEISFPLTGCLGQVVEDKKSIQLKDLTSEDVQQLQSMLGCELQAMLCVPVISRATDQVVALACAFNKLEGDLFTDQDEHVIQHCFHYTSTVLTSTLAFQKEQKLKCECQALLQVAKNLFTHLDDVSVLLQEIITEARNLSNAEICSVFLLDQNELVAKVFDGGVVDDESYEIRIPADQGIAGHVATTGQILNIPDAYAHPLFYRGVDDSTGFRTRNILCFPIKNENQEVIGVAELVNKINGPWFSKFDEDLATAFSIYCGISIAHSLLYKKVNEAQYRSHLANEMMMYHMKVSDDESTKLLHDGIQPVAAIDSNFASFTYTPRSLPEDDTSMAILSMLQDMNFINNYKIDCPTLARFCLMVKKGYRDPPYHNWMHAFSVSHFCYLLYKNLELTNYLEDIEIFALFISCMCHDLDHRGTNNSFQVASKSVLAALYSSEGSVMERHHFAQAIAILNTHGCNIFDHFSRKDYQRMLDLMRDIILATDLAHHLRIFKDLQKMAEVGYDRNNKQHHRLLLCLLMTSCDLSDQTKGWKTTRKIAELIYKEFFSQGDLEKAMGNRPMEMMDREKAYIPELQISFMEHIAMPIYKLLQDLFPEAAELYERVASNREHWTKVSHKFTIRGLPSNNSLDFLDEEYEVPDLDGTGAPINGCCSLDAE
Test: PDE2 fluorescence polarization (IMAP FP) inhibition assay, rhesus PDE2A3
Assay type: biochemical, rhesus macaque
Conditions: Lab A; read-out: Rhesus PDE2 Ki (nM) Lab A
Give the value in nM but do not write nM after it.

Below, 5 compounds whose answers are already recorded.
{"compound": "Cc1nc2c(c(CO)nn2C(C)c2ccc(OC(F)(F)F)c(F)c2)c(=O)[nH]1 (single isomer, unassigned) [Example 11]", "Ki, nM": 0.85}
{"compound": "COc1ccc(Cc2nc3c(c(CF)nn3C(C)c3ccc(C(F)(F)F)cc3)c(=O)[nH]2)cc1OC (single isomer, unassigned) [Example 223]", "Ki, nM": 26}
{"compound": "Cc1nc2c(c(CO)nn2C(c2ccc(C(F)(F)F)cc2)C2CC2)c(=O)[nH]1 (stereo not shown)", "Ki, nM": 0.75}
{"compound": "Cc1nc2c(c(CF)nn2C(C)c2ccc(C(F)(F)F)cc2)c(=O)[nH]1 (stereo not shown)", "Ki, nM": 4}
{"compound": "Cc1nc2c(c(CO)nn2C(c2ccc(C(F)(F)F)cc2)C(C)C)c(=O)[nH]1 (stereo not shown)", "Ki, nM": 0.62}

GET /value?item= COc1ccc(Cc2nc3c(c(CF)nn3C(C)c3ccc(C(F)(F)F)cc3)c(=O)[nH]2)cc1OC (single isomer, unassigned) [Example 222] &field=Ki returns 0.17

Form field Ki, entry Cc1nn(C(C)c2ccc(C(F)(F)F)cc2)c2nc(-c3cnn(C)c3)[nH]c(=O)c12 (stereo not shown) : 29

Ki reported for this compound Cc1nc2c(c(CF)nn2C(c2ccc(C(F)(F)F)cc2)C2CC2)c(=O)[nH]1 (stereo not shown) : 0.87

Data point: Cc1nn(C(C)c2ccc(C(F)(F)F)cc2)c2nc(C3CCCC3)[nH]c(=O)c12 (stereo not shown) ; Ki = 340

The compound identified as Cc1nc2c(c(CF)nn2C(C)c2ccc(OC(F)(F)F)cc2)c(=O)[nH]1 (single isomer, unassigned) [Example 206] registered its Ki at 41

Notebook: Cc1nn(C(C)c2ccc(C(F)(F)F)cc2)c2nc(Cc3ccccc3O)[nH]c(=O)c12 (stereo not shown) , Ki read as 65

Recorded result, Cc1nc2c(c(C)nn2C(C)c2ccc(C(F)(F)F)cc2)c(=O)[nH]1 (single isomer, unassigned) [Example 37] , Ki: 23

Record summary for Cc1nn(C(C)c2ccc(C(F)(F)F)cc2)c2nc(-c3ccco3)[nH]c(=O)c12 (stereo not shown) : reported Ki = 9
